Listing of entries alongside the reported inhibition at 0.5 µM.
target: VEGFR2 kinase (Homo sapiens, UniProt P35968); construct: recombinant N-terminal 6×His-tagged VEGFR2 kinase domain construct expressed by baculovirus; 6xHis (N); made in house; assay: VEGFR2 kinase assay (33P incorporation into Poly(Glu-Tyr)); assay type: biochemical; details: 500 nM test compound; read-out: Inhibition at 500 nM (%) VEGFr-2
Sequence (P35968 834-1162 limits assumed): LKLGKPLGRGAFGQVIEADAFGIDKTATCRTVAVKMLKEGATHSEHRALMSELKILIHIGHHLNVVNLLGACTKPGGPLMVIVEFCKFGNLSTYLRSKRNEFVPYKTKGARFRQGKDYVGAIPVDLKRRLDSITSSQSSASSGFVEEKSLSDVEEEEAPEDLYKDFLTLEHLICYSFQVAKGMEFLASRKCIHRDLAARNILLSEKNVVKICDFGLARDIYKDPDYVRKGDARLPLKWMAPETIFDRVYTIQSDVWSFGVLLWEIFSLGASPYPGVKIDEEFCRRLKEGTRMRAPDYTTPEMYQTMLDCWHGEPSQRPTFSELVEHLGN
Report only the number, with the unit % understood.

Known results for molecules:
CCOC(=O)CCc1c(/C=C2\C(=O)Nc3ccc(NCc4ccccc4)cc32)[nH]c2c1C(=O)CCC2 = 65.9
O=C(O)CCc1c(/C=C2\C(=O)Nc3ccccc32)[nH]c2c1C(=O)CCC2 = 85
CCS(=O)(=O)Nc1ccc2c(c1)/C(=C/c1[nH]c3c(c1CCC(=O)O)C(=O)CCC3)C(=O)N2 = 33.9
CCOC(=O)CCc1c(/C=C2\C(=O)Nc3ccc(-c4ccc(F)cc4)cc32)[nH]c2c1C(=O)CCC2 = 14.1
O=C(O)CCc1c(/C=C2\C(=O)Nc3ccc(F)cc32)[nH]c2c1C(=O)CCC2 = 91.2
CCOC(=O)CCc1c(/C=C2\C(=O)Nc3ccc(S(=O)(=O)NC)cc32)[nH]c2c1C(=O)CCC2 = 39

Q: # lookup: inhibition at 0.5 µM of `CCOC(=O)CCc1c(/C=C2\C(=O)Nc3ccc(-c4cc5ccccc5s4)cc32)[nH]c2c1C(=O)CCC2`
A: 11.4

Q: # lookup: inhibition at 0.5 µM of `CCOC(=O)CCc1c(/C=C2\C(=O)Nc3ccc(NS(=O)(=O)c4ccccc4)cc32)[nH]c2c1C(=O)CCC2`
A: 68

Q: # lookup: inhibition at 0.5 µM of `O=C(O)CCc1c(/C=C2\C(=O)Nc3ccc(Br)cc32)[nH]c2c1C(=O)CCC2`
A: 94.9

Q: # lookup: inhibition at 0.5 µM of `CCOC(=O)CCc1c(/C=C2\C(=O)Nc3ccc(-c4ccc(O)c(OC)c4)cc32)[nH]c2c1C(=O)CCC2`
A: 46.3

====

Listing of entries alongside the reported inhibition at 0.5 µM.
Molecular target: PDGFR-β kinase (Homo sapiens)
Construct: recombinant N-terminal 6×His-tagged PDGFR-β kinase domain construct expressed by baculovirus; 6xHis (N); made in house
Sequence (P09619 600-962 limits assumed): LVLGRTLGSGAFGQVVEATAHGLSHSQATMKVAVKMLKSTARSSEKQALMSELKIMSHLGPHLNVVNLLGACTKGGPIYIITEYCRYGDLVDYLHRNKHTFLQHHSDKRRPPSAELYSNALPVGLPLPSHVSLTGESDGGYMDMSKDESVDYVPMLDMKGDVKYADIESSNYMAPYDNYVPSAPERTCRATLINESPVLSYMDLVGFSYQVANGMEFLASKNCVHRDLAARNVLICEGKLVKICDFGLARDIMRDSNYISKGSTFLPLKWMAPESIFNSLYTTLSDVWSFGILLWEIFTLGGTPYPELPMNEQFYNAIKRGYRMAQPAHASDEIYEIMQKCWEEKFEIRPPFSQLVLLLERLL
Assay: PDGFR-β kinase assay (33P incorporation into Poly(Glu-Tyr))
Assay type: biochemical
Conditions: 500 nM test compound
Description: Inhibition of PDGFR-β kinase activity by compounds disclosed herein was quantified by measuring the amount of [^33P] incorporated into the substrate in the presence of a test compound. […] The plate was then sealed and counted using a TopCount scintillation detector (PerkinElmer). The percentage of inhibition rate of the test compound was calculated by dividing the retained radioactivity of the test sample with the retained radioactivity of the control sample and shown in Table 3.
Report only the number, with the unit % understood.

O=C(O)CCc1c(/C=C2\C(=O)Nc3ccc(NC(=O)c4ccc([N+](=O)[O-])cc4)cc32)[nH]c2c1C(=O)CCC2 [DCB-70142] = 7.9
CCN(CC)C(=O)CCc1c(/C=C2\C(=O)Nc3ccc(F)cc32)[nH]c2c1C(=O)CCC2 [DCB-70124] = 64.3
CCOC(=O)CCc1c(/C=C2\C(=O)Nc3ccc(NC(=O)Nc4ccc(Cl)c(C(F)(F)F)c4)cc32)[nH]c2c1C(=O)CCC2 [DCB-70137] = 11.5

Q: # lookup: inhibition at 0.5 µM of O=C(O)CCc1c(/C=C2\C(=O)Nc3ccc(S(=O)(=O)Cc4c(Cl)cccc4Cl)cc32)[nH]c2c1C(=O)CCC2 [DCB-70073]
A: 29.3

====

molecular target: PDGFR-β kinase (Homo sapiens); construct: recombinant N-terminal 6×His-tagged PDGFR-β kinase domain construct expressed by baculovirus; 6xHis (N); made in house; assay: PDGFR-β kinase assay (33P incorporation into Poly(Glu-Tyr)); type: biochemical; conditions: 500 nM test compound
Value kind: inhibition at 0.5 µM (%)
Report only the number, with the unit % understood.

O=C(O)CCc1c(/C=C2\C(=O)Nc3ccc(-c4ccc(F)cc4)cc32)[nH]c2c1C(=O)CCC2 [DCB-70109] = 22.6
O=C(O)CCc1c(/C=C2\C(=O)Nc3cc(Br)ccc32)[nH]c2c1C(=O)CCC2 [DCB-70133] = 8.3
CCOC(=O)CCc1c(/C=C2\C(=O)Nc3ccc(NS(=O)(=O)c4ccc(F)cc4)cc32)[nH]c2c1C(=O)CCC2 [DCB-70144] = 2.4

From here, focus on the item given below.
Q: # lookup: inhibition at 0.5 µM of CCOC(=O)CCc1c(C=C2C(=S)Nc3ccccc32)[nH]c2c1C(=O)CCC2 [DCB-70083]
A: 11.6

====

target: c-Met kinase (Homo sapiens); construct: recombinant N-terminal 6×His-tagged c-Met kinase domain construct expressed from baculovirus; 6xHis (N); made in house; experiment: c-Met kinase assay (33P incorporation into Poly(Glu-Tyr)); format: biochemical; conditions: 500 nM test compound
Value kind: inhibition at 0.5 µM (%)
Report only the number, with the unit % understood.

Known results for compounds:
CCOC(=O)CCc1c(/C=C2\C(=O)Nc3ccc(NCc4ccccc4)cc32)[nH]c2c1C(=O)CCC2 = -2.1
O=C(O)CCc1c(C=C2C(=S)Nc3ccccc32)[nH]c2c1C(=O)CCC2 = 11.5
CCOC(=O)CCc1c(/C=C2\C(=O)Nc3ccc(NS(=O)(=O)c4ccc(F)cc4)cc32)[nH]c2c1C(=O)CCC2 = 14.4

Q: # lookup: inhibition at 0.5 µM of `CCOC(=O)CCc1c(/C=C2\C(=O)Nc3ccc(NC(=O)Nc4ccc(Br)cc4)cc32)[nH]c2c1C(=O)CCC2`
A: -3.7

====

biological target: Aurora B kinase (Homo sapiens); construct: purchased Cell signaling; experiment: Aurora B kinase assay ([γ-33P]ATP, CHOCKtide substrate); type: biochemical; conditions: 1.0 μM test compound
Sequence (Q96GD4 whole entry): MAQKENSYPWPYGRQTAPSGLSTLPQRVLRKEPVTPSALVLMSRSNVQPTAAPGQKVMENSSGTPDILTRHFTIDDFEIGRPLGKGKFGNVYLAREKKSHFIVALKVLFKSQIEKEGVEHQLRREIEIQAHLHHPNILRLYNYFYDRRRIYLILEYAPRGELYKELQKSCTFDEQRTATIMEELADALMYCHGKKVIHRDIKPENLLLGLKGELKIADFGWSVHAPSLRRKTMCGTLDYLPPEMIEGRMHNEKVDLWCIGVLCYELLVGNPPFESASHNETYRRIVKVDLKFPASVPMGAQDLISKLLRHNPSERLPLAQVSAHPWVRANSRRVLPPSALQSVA
Please note: fulfilled applies when inhibition at 1 µM is 20% or greater, and not fulfilled applies otherwise.

CCOC(=O)CCc1c(/C=C2\C(=O)Nc3ccc(NC(=O)Nc4ccc(Cl)cc4Cl)cc32)[nH]c2c1C(=O)CCC2 = not fulfilled
COc1ccc2c(c1)/C(=C/c1[nH]c3c(c1CCC(=O)O)C(=O)CCCC3)C(=O)N2 = not fulfilled
CCOC(=O)CCc1c(/C=C2\C(=O)Nc3ccc(NS(=O)(=O)CC)cc32)[nH]c2c1C(=O)CCC2 = not fulfilled
CC(=O)c1c(C)[nH]c(/C=C2\C(=O)Nc3ccc(F)cc32)c1CCC(=O)N1CCN(C)CC1 = not fulfilled
CCOC(=O)CCc1c(/C=C2\C(=O)Nc3ccc(NC(=O)c4ccc(F)cc4)cc32)[nH]c2c1C(=O)CCC2 = not fulfilled
O=C(O)CCc1c(/C=C2\C(=O)Nc3ccc(NS(=O)(=O)c4ccc(F)cc4)cc32)[nH]c2c1C(=O)CCC2 = fulfilled
CCOC(=O)CCc1c(/C=C2\C(=O)Nc3ccccc32)[nH]c2c1C(=O)CCC2 = not fulfilled
CCOC(=O)CCc1c(/C=C2\C(=O)Nc3ccc(S(=O)(=O)NC)cc32)[nH]c2c1C(=O)CCC2 = fulfilled

Q: Item `CCOC(=O)CCc1c(/C=C2\C(=O)Nc3ccc(NCc4ccc(F)cc4)cc32)[nH]c2c1C(=O)CCC2` with inhibition at 1 µM of 20% or above?
A: not fulfilled

Q: Item `O=C(O)CCc1c(/C=C2\C(=O)Nc3ccc(S(=O)(=O)Cc4c(Cl)cccc4Cl)cc32)[nH]c2c1C(=O)CCC2` with inhibition at 1 µM of 20% or above?
A: not fulfilled

====

target: c-Met kinase (Homo sapiens, UniProt P08581); construct: recombinant N-terminal 6×His-tagged c-Met kinase domain construct expressed from baculovirus; 6xHis (N); made in house; experiment: c-Met kinase assay (33P incorporation into Poly(Glu-Tyr)); type: biochemical; settings: 500 nM test compound
Sequence (P08581 1078-1345 limits assumed): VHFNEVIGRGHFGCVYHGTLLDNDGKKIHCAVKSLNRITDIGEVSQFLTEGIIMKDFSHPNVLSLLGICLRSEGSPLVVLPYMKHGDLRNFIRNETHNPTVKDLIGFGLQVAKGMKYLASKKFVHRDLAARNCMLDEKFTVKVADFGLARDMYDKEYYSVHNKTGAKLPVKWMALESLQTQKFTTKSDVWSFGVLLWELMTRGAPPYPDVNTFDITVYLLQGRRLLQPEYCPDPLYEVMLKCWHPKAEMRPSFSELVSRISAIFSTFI
Listing of entries alongside the reported inhibition at 0.5 µM.

Known results for compounds:
COc1cccc(S(=O)(=O)Nc2ccc3c(c2)/C(=C/c2[nH]c4c(c2CCC(=O)O)C(=O)CCC4)C(=O)N3)c1 = 13.8%
CCOC(=O)CCc1c(/C=C2\C(=O)Nc3ccc(NS(=O)(=O)c4cccc(OC)c4)cc32)[nH]c2c1C(=O)CCC2 = 15.3%
CCCCCCC#Cc1ccc2c(c1)/C(=C/c1[nH]c3c(c1CCC(=O)OCC)C(=O)CCC3)C(=O)N2 = 10.4%

From here, focus on the item given below.
Q: # lookup: inhibition at 0.5 µM of `Cc1ccc(NC(=O)Nc2ccc3c(c2)/C(=C/c2[nH]c4c(c2CCC(=O)O)C(=O)CCC4)C(=O)N3)cc1`
A: 28.2%

====

target: PDGFR-β kinase (Homo sapiens); construct: recombinant N-terminal 6×His-tagged PDGFR-β kinase domain construct expressed by baculovirus; 6xHis (N); made in house; test: PDGFR-β kinase assay (33P incorporation into Poly(Glu-Tyr)); assay type: biochemical; settings: 500 nM test compound
Value kind: inhibition at 0.5 µM (%)
Report only the number, with the unit % understood.

Known results for compounds:
CN1CCN(C(=O)CCc2c(/C=C3\C(=O)Nc4ccc(S(=O)(=O)N5CCCC5)cc43)[nH]c3c2C(=O)CCC3)CC1 [DCB-70120] = 7.6
CCS(=O)(=O)c1ccc2c(c1)/C(=C/c1[nH]c3c(c1CCC(=O)O)C(=O)CCC3)C(=O)N2 [DCB-70116] = 11.2

Q: Lab note: need inhibition at 0.5 µM for O=C(O)CCc1c(/C=C2\C(=O)Nc3cc(-c4cc5ccccc5s4)ccc32)[nH]c2c1C(=O)CCC2 [DCB-70080] on PDGFR-β kinase (Homo sapiens), anyone have it?
A: 56.7

Q: Lab note: need inhibition at 0.5 µM for O=C(O)CCc1c(/C=C2\C(=O)Nc3cc(-c4ccc(F)cc4)ccc32)[nH]c2c1C(=O)CCC2 [DCB-70099] on PDGFR-β kinase (Homo sapiens), anyone have it?
A: 74.6
